# Tested on: HCT-15
# note: boundary value 20 µM maps to false; GI50 below it maps to true

Molecule | Tested Target | Classification
OCC(O)C(OC1OC(CO)C(O)C(O)C1O)c1nn(-c2ccc(Cl)cc2)c2nc3cc(Cl)c(Cl)cc3nc12 (stereo not drawn) | HCT-15 | false
Cc1ccc(/C=C/C(=O)Oc2ccc(/C=C3\CCC/C(=C\c4ccc(OC(=O)/C=C/c5ccc(C)cc5)cc4)C3=O)cc2)cc1 | HCT-15 | false
O=C(O)c1ccccc1SCc1cccc2c(=O)c3ccc(Cl)cc3oc12 | HCT-15 | false
O=C1CSc2cc([N+](=O)[O-])ccc2N1 | HCT-15 | false
C[Si](C)(C)C#CCO[Si](C)(C)C | HCT-15 | false
O=C1OC(CN2CCN(c3ccccc3)CC2)CN1C(=S)Nc1ccccc1 (stereo not drawn) | HCT-15 | false
O=c1[nH]nc(-c2cccc([N+](=O)[O-])c2)[nH]1 | HCT-15 | false
CC1(C)/C(=N\NC(N)=O)C2CCC1C2 (stereo not drawn) | HCT-15 | false
CCOC(=O)CCCSCCCC(=O)CCCSCCCC(=O)OCC | HCT-15 | false
Cc1ccc(S(=O)(=O)NNS(C)(=O)=O)cc1 | HCT-15 | false
COc1ccc(N2C(=O)C(=O)N(c3ccccc3[N+](=O)[O-])C2=S)cc1 | HCT-15 | true
CCOc1cc2oc(C)cc(=O)c2c(OC)c1/C=N/c1ccc(Cn2c(C)nc3ccccc32)cc1 | HCT-15 | false
COC(=O)c1cc2cc3c(c(O)c2c(=O)o1)O[C@@]1(Oc2c(O)c4c(c(O)c2[C@H]1OC1CC(OC)C(O)C(C)O1)C(=O)C=C(OC)C4=O)[C@H](O)C3 (stereo partly drawn) | HCT-15 | true
COC(=O)C12OCC34C(CC5C(C)C6=CC(=O)OC6=CC5(C)C3C(O)C1O)OC(=O)C(O)C24 (stereo not drawn) | HCT-15 | true
COC(=O)C1CCC2(C)[C@H](CCC3O[C@]32C)[C@@]1(C)CC(=O)c1ccoc1 (stereo partly drawn) | HCT-15 | false
C[C@]12CCC(=O)C=C1CC[C@@H]1C2CC[C@@]2(C)C1CC[C@@H]2OC(=O)C12OC1CCC2=O (stereo partly drawn) | HCT-15 | true
Fc1ccccc1/N=c1\oc2ccc(Br)cc2cc1-c1nc2ccccc2[nH]1 | HCT-15 | false
Clc1ccc(NCNC2Nc3ccccc3N2)cc1Cl | HCT-15 | false
CC1=NN(c2cccc(Cl)c2)C2(C1=Cc1ccccc1)C(Cl)C(=O)N2c1nc2ccccc2s1 (stereo not drawn) | HCT-15 | true
Cn1ccnc1CCc1ccc(F)cc1F | HCT-15 | false
CC(C)(C)c1nc2c(o1)C(=O)c1ccccc1C2=O | HCT-15 | true
Clc1cc2nc(C3CCCO3)[nH]c2cc1Cl (stereo not drawn) | HCT-15 | false

###

# Tested on: OVCAR-4
# Assay Explanation: NCI tumour cell line growth inhibition, 48 h
Active and inactive are the calls of the source. Rule as the data show it: active = GI50 up to about 1.1 µM and inactive = higher.
Classes used: yes (1) = active, no (0) = inactive

Compound | Classification
COC(=O)[C@H]1[C@H](C(=O)OC)[C@@H](C)c2c(ccc3c2[nH]c2ccccc23)[C@@H]1C | no (0)
COc1cc(C2c3cc4c(cc3[C@@H](Nc3cccc([N+](=O)[O-])c3)C3COC(=O)[C@H]23)OCO4)cc(OC)c1O (some centres undefined) | no (0)
CC(C)C(=O)N1C(=O)O[C@@H](c2ccccc2)[C@H]1C | no (0)
COc1ccc(-c2oc3cc(OC)c(OC)c(OC)c3c(=O)c2OC)cc1OC [HEXAMETHOXYFLAVONE] | no (0)
COc1cc2c(c(OC)c1OC)-c1ccc(SC)c(=O)cc1C(CO)C2 (centres undefined) | yes (1)
O=C(O)CCCSc1nc2ccccc2s1 | no (0)
O=C(O)C[C@@H](Cl)[C@H](NC(=O)OCc1ccccc1)C(=O)O | no (0)
CN(C)CCCN1c2ccccc2Sc2ccc3ccccc3c21 | no (0)
CC1(C)O[C@@H](CP(c2ccc3ccccc3c2)c2ccc3ccccc3c2)[C@H](CP(c2ccc3ccccc3c2)c2ccc3ccccc3c2)O1 | no (0)

###

# Test system: UACC-257
# Assay Explanation: NCI tumour cell line growth inhibition, 48 h
Activity calls are given as the source filed them. Rule as the data show it: active = GI50 up to about 1.1 µM and inactive = higher.

Molecule | GI50
C=CC/C=C/C/C=C/CCCCCCCc1cccc(O)c1C(=O)O | 73.3 µM (inactive)
CCN(CC)c1ccc(/C=C/C(=O)c2cc(C(C)(C)C)c(O)c(C(C)(C)C)c2)cc1 | 6.85 µM (inactive)
O=S(O)c1cc(Cl)cc(Cl)c1OCc1ccccc1 | > 100 µM (inactive)
COc1cc(C(C)=O)cc(C(=O)N(C(C)C)C(C)C)c1[Si](C)(C)C | > 100 µM (inactive)
CCCCCC1CC=CC(NC(=O)OCc2ccccc2)C1/C=C/CCCC1OCCO1 (stereo not drawn) | 50.7 µM (inactive)
CC(C)/C(Cl)=N/OC(=O)Nc1ccc(Cl)c(Cl)c1 | 14.6 µM (inactive)
O=CC(O)C(O)C(O)COc1cc(CO)cc2c1C(=O)c1ccccc1C2=O (stereo not drawn) | > 100 µM (inactive)
NC(=O)N/N=C1/c2ccccc2-n2nccc21 | > 100 µM (inactive)
CCOc1cc2oc(C)cc(=O)c2c(OC)c1/C=N/c1ccc(Cn2c(C)nc3ccccc32)cc1 | > 100 µM (inactive)
COc1ccc(CC2NCCc3cc(OC)c(OC)cc32)cc1Br (stereo not drawn) | 17.3 µM (inactive)
C=CCOC(=O)CC[N+]1=CCC(c2ccccc2)(c2ccccc2)O1 | > 100 µM (inactive)
OCC(O)C(OC1OC(CO)C(O)C(O)C1O)c1nn(-c2ccc(Cl)cc2)c2nc3cc(Cl)c(Cl)cc3nc12 (stereo not drawn) | > 100 µM (inactive)
C[C@]12CCC(=O)C=C1CC[C@@H]1C2CC[C@@]2(C)C1CC[C@@H]2OC(=O)C12OC1CCC2=O (stereo partly drawn) | 18 µM (inactive)
O=C1c2ccccc2C(=O)N1CCCCNOCCCN1C(=O)c2ccccc2C1=O | > 100 µM (inactive)
CCCCCC(/C=C/C1CCC(=O)C1)OCOCCOC (stereo not drawn) | 26.9 µM (inactive)
Cc1[nH]c2ncn3ncnc3c2c1Cc1ccccc1 | > 100 µM (inactive)
Cc1cccc(C)c1NC(=O)C(=O)Cc1nc2ccccc2s1 | > 100 µM (inactive)
CCOC(=O)c1cc(C)nc2c1c(=O)n(-c1ccccc1)c(=O)n2CCCCN1CCN(c2ccccc2)CC1 | 27.8 µM (inactive)
CCOc1ccccc1NC(=O)CCc1n[nH]c(=S)o1 | > 100 µM (inactive)
O=S1(=O)c2ccccc2N=C(c2ccccc2Cl)CC1c1ccc(F)cc1 (stereo not drawn) | 11.9 µM (inactive)
Cc1ccc(/C=C/C(=O)Oc2ccc(/C=C3\CCC/C(=C\c4ccc(OC(=O)/C=C/c5ccc(C)cc5)cc4)C3=O)cc2)cc1 | > 100 µM (inactive)
O=C1CSc2nnc(CCCCCCCCc3nnc4n3NC(=O)CS4)n2N1 | 42.6 µM (inactive)
Cc1nn(-c2ccccc2)c2nc(S)cnc12 | > 100 µM (inactive)

###

# Test system: A549
# Assay Explanation: NCI tumour cell line growth inhibition, 48 h
The source made the active and inactive calls. No stated cut-off is given here; in the data, active = GI50 up to about 1.1 µM and inactive = higher.

Molecule | Tested Target | GI50
CC(=O)c1cccc(NC(=O)C(=O)NNc2nnc(S)n2N)c1 | A549 | 3.75 µM (inactive)
COc1ccc(N2C(=O)C(=O)N(c3ccccc3[N+](=O)[O-])C2=S)cc1 | A549 | 38.5 µM (inactive)
CN(CCCNC(=O)c1cn(C)c2c1ccc1cc(Cl)c(Cl)cc12)CCCNC(=O)c1cn(C)c2c1ccc1cc(Cl)c(Cl)cc12 | A549 | 11 µM (inactive)
CN(C)c1ccc(/C=C(\NC(=O)c2ccccc2)C(=O)NC(CCC(=O)O)C(=O)O)cc1 (stereo unspecified) | A549 | > 100 µM (inactive)
CC(C)(C)COS(=O)OCC(C)(C)C | A549 | > 100 µM (inactive)
CCN(CC)C(=O)C1=C(C)NC(C)=C(C(=O)N(CC)CC)C1 | A549 | > 100 µM (inactive)

###

# System: NCI-H522
# Assay Explanation: NCI tumour cell line growth inhibition, 48 h
Activity calls are given as the source filed them. No stated cut-off is given here; in the data, active = GI50 up to about 1.1 µM and inactive = higher.
Classes used: 1 for active, -1 for inactive

Compound | Tested Target | Classification
Cn1cnc([N+](=O)[O-])c1SCC(=O)O | NCI-H522 | -1
CC(C)C[C@H](NC(=O)[C@H](Cc1ccccc1)NC(=O)c1cnccn1)B(O)O | NCI-H522 | 1
COC(=O)N1CC(=O)C(C(=O)NC23CC4CC(CC(C4)C2)C3)C1 (centres undefined) | NCI-H522 | -1
OCC1C2C=CC(O2)[C@H]1CO (some centres undefined) | NCI-H522 | -1
CC(c1ccccc1)N1CC(C)(c2ccccc2)N(O)C(c2ccccc2)C1C (centres undefined) | NCI-H522 | -1
Nc1nc(Cl)cc(NCC2(O)CC2)n1 | NCI-H522 | -1
O=C(O)C1CCCCN1CCc1c[nH]c2ccccc12 (centres undefined) | NCI-H522 | -1
CN(CCc1ccccn1)c1ccc2c(c1)C(=O)c1ccccc1-2 | NCI-H522 | -1
Clc1ccc(-c2nn3c(COc4cccc(OCc5nnc6sc(-c7ccc(Cl)cc7)nn56)c4)nnc3s2)cc1 | NCI-H522 | -1
